Below are IC50 measurements against Mu-type opioid receptor (Homo sapiens) drawn from the literature.
Sequence (P35372 whole entry): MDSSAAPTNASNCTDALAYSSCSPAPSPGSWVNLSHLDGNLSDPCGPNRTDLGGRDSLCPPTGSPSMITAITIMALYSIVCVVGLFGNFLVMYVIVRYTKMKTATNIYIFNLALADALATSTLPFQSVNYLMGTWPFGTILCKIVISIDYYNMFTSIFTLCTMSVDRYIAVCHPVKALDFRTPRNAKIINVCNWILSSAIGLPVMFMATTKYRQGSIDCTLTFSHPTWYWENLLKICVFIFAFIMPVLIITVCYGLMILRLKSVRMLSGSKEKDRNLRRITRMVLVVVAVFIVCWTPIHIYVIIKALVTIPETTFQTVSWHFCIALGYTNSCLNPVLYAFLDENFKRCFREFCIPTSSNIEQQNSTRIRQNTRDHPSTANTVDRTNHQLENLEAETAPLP

INPUT: Recorded IC50 for c1cnc2c(c1)CN[C@@H](CN(CCCCNC1COC1)[C@H]1CCCc3cccnc31)C2 with Mu-type opioid receptor (Homo sapiens), please?
OUTPUT: 21 µM

INPUT: Recorded IC50 for Cc1nc2cnccc2n1-c1ccc(OCc2cccc(/C=C/c3ccc4ccc(Cl)cc4n3)c2)cc1 with Mu-type opioid receptor (Homo sapiens), please?
OUTPUT: > 10 µM

INPUT: Recorded IC50 for CN(CCCCN(C[C@H]1Cc2ncccc2CN1)[C@H]1CCCc2cccnc21)C1CCOCC1 with Mu-type opioid receptor (Homo sapiens), please?
OUTPUT: > 30 µM

INPUT: Recorded IC50 for COCCCOc1cc(C(=O)N(C[C@@H]2CNC[C@H]2OC(=O)NCc2ccccc2)C(C)C)ccc1OC with Mu-type opioid receptor (Homo sapiens), please?
OUTPUT: 1 µM

INPUT: Recorded IC50 for CCCNCc1ccc(CCn2ccc(OCc3ccc(F)cc3)cc2=O)cc1 with Mu-type opioid receptor (Homo sapiens), please?
OUTPUT: > 5 µM

INPUT: Recorded IC50 for c1cnc2c(c1)CN[C@@H](CN(CCCCNC1CCOCC1)[C@H]1CCCc3cccnc31)C2 with Mu-type opioid receptor (Homo sapiens), please?
OUTPUT: 20 µM

INPUT: Recorded IC50 for OC[C@H]1CN(Cc2ccccc2)CCCN1Cc1ccccc1 with Mu-type opioid receptor (Homo sapiens), please?
OUTPUT: > 10 µM

INPUT: Recorded IC50 for Fc1ccc(-c2noc(C3CCN(c4cnc5ccc(Cl)cc5c4)CC3)n2)c(Cl)c1 with Mu-type opioid receptor (Homo sapiens), please?
OUTPUT: > 50 µM

INPUT: Recorded IC50 for Cc1ccc(S(=O)(=O)NCc2ccc(C(=O)NCCN(Cc3ccc(Br)cc3)C(C)C)cc2)cc1 with Mu-type opioid receptor (Homo sapiens), please?
OUTPUT: > 32 µM
